- System Tested: sigma receptor (Cavia porcellus)
- Construct: A membrane preparation as a sigma receptor obtained from the whole brain of guinea pigs; from tissue; host or cells: guinea pig whole brain membrane preparation
- Assay Info: Evaluation of affinity to sigma receptors ([3H](+)-pentazocine receptor binding, whole-brain membrane preparation)
- Parameters: species or system guinea pig
- Applied Conditions: compound concentration 1 × 10^−11 mol/L; [3H](+)-pentazocine; 25° C., 60 minutes; read-out: Inhibition rate (%)
Catalogue of inhibition at 10 pM values
Please respond with the number in % and leave the unit unwritten.

Field: example entries. Status: answers known.
c1ccc(SCCN2CCCC3CCCCC32)cc1 (centres unmarked) [Compound [3], N-(2-phenylthio)ethyldecahydroquinoline]
2.84
CCN(CCSc1cccc(C(F)F)c1)C1CCCCC1 [Compound [5]]
1.25
CCN(CCSc1ccc(OC)c(OC)c1)C1CCCCC1 [Compound [6]]
1.75
CCN(CCSc1ccc(F)cc1)C1CCCCC1 [Compound [7]]
0

Turning to the following molecule.
Reported inhibition at 10 pM for CCN(CCSc1cccc(C(F)(F)F)c1)C1CCCCC1 [Compound [4]] was 10.4

----------
- System Tested: sigma receptor (Cavia porcellus, UniProt Q60492)
- Construct: A membrane preparation as a sigma receptor obtained from the whole brain of guinea pigs
- Sequence (Q60492 whole entry): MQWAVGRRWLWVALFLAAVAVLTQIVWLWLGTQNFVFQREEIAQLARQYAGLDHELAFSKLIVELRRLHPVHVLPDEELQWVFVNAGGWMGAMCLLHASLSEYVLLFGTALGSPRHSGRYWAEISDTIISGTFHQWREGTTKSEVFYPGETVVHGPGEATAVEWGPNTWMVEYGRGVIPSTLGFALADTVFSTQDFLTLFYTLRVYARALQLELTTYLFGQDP
- Assay Info: Evaluation of affinity to sigma receptors ([3H](+)-pentazocine receptor binding, whole-brain membrane preparation)
- Applied Conditions: from logit-log regression of the dose-response curve
Observable: IC50 (nM)
Please respond with the number in nM and leave the unit unwritten.

Field: example entries. Status: answers known.
c1ccc(SCCN2CCCC3CCCCC32)cc1 (centres unmarked) [Compound [3], N-(2-phenylthio)ethyldecahydroquinoline]
1.2
CCN(CCSc1cccc(C(F)(F)F)c1)C1CCCCC1 [Compound [4]]
0.189
CCN(CCSc1ccc(OC)c(OC)c1)C1CCCCC1 [Compound [6]]
0.268
CCN(CCSc1cccc(C(F)F)c1)C1CCCCC1 [Compound [5]]
0.222

Turning to the following compound.
The reported sigma receptor (Cavia porcellus, UniProt Q60492) IC50 of CCN(CCSc1ccc(F)cc1)C1CCCCC1 [Compound [7]] is 1.23

----------
- System Tested: sigma receptor (Cavia porcellus, UniProt Q60492)
- Construct: A membrane preparation as a sigma receptor obtained from the whole brain of guinea pigs
- Assay Info: Evaluation of affinity to sigma receptors ([3H](+)-pentazocine receptor binding, whole-brain membrane preparation)
- Applied Conditions: Ki from Dixon plot
Observable: log10 Ki (log10 of the value in nM)
Short version: log10 scale, Ki, nM.

Field: example entries. Status: answers known.
CCN(CCCc1ccccc1)C1CCCCC1 [Compound [8]]
0.94
CCN(CCCc1ccc(F)cc1)C1CCCCC1 [Compound [10]]
0.93
c1ccc(SCCN2CCCC3CCCCC32)cc1 (stereo not shown) [Compound [3], N-(2-phenylthio)ethyldecahydroquinoline]
0.20

Reported log10 Ki for CCN(CCSc1cccc(C(F)(F)F)c1)C1CCCCC1 [Compound [4]] was -0.10

Reported log10 Ki for CCN(CCSc1ccc(OC)c(OC)c1)C1CCCCC1 [Compound [6]] was 0.57

Reported log10 Ki for CCN(CCCc1ccc(OC)cc1)C1CCCCC1 [Compound [9]] was 1.02

Reported log10 Ki for CCN(CCSc1ccccc1)C1CCCCC1 [Compound [2]] was 0.00

Reported log10 Ki for CCN(CCOc1ccc(F)cc1)C1CCCCC1 [Compound [11]] was 0.38

Reported log10 Ki for CCN(CCSc1ccc(F)cc1)C1CCCCC1 [Compound [7]] was -0.10

Reported log10 Ki for CCN(CCOc1ccccc1)C1CCCCC1 [Compound [12]] was 0.82

----------
- System Tested: sigma receptor (Cavia porcellus, UniProt Q60492)
- Construct: A membrane preparation as a sigma receptor obtained from the whole brain of guinea pigs; from tissue; host or cells: guinea pig whole brain membrane preparation
- Assay Info: Evaluation of affinity to sigma receptors ([3H](+)-pentazocine receptor binding, whole-brain membrane preparation)
- Parameters: species or system guinea pig
- Applied Conditions: compound concentration 1 × 10^−6 mol/L; [3H](+)-pentazocine; 25° C., 60 minutes; read-out: Inhibition rate (%)
Observable: inhibition at 1 µM (%)
Please respond with the number in % and leave the unit unwritten.

Field: example entries. Status: answers known.
CCN(CCSc1cccc(C(F)F)c1)C1CCCCC1 [Compound [5]]
97.5
CCN(CCSc1cccc(C(F)(F)F)c1)C1CCCCC1 [Compound [4]]
100
CCN(CCSc1ccc(OC)c(OC)c1)C1CCCCC1 [Compound [6]]
99.9
c1ccc(SCCN2CCCC3CCCCC32)cc1 (centres unmarked) [Compound [3], N-(2-phenylthio)ethyldecahydroquinoline]
99.9

Reported inhibition at 1 µM for CCN(CCSc1ccc(F)cc1)C1CCCCC1 [Compound [7]] was 97.3

----------
- System Tested: sigma receptor (Cavia porcellus)
- Construct: A membrane preparation as a sigma receptor obtained from the whole brain of guinea pigs; from tissue; host or cells: guinea pig whole brain membrane preparation
- Assay Info: Evaluation of affinity to sigma receptors ([3H](+)-pentazocine receptor binding, whole-brain membrane preparation)
- Set-up: species or system guinea pig
- Applied Conditions: compound concentration 1 × 10^−10 mol/L; [3H](+)-pentazocine; 25° C., 60 minutes; read-out: Inhibition rate (%)
Observable: inhibition at 0.0001 µM (%)
Please respond with the number in % and leave the unit unwritten.

Field: example entries. Status: answers known.
CCN(CCSc1cccc(C(F)F)c1)C1CCCCC1 [Compound [5]]
20.8
CCN(CCSc1cccc(C(F)(F)F)c1)C1CCCCC1 [Compound [4]]
23.5
c1ccc(SCCN2CCCC3CCCCC32)cc1 (centres unmarked) [Compound [3], N-(2-phenylthio)ethyldecahydroquinoline]
6.31
CCN(CCSc1ccc(OC)c(OC)c1)C1CCCCC1 [Compound [6]]
19.9

Turning to the following compound.
Reported inhibition at 0.0001 µM for CCN(CCSc1ccc(F)cc1)C1CCCCC1 [Compound [7]] was 3.43

----------
- System Tested: sigma receptor (Cavia porcellus, UniProt Q60492)
- Construct: A membrane preparation as a sigma receptor obtained from the whole brain of guinea pigs; from tissue; host or cells: guinea pig whole brain membrane preparation
- Assay Info: Evaluation of affinity to sigma receptors ([3H](+)-pentazocine receptor binding, whole-brain membrane preparation)
- Design: species or system guinea pig
- Applied Conditions: compound concentration 1 × 10^−9 mol/L; [3H](+)-pentazocine; 25° C., 60 minutes; read-out: Inhibition rate (%)
Catalogue of inhibition at 0.001 µM values
Please respond with the number in % and leave the unit unwritten.

Field: example entries. Status: answers known.
c1ccc(SCCN2CCCC3CCCCC32)cc1 (centres unmarked) [Compound [3], N-(2-phenylthio)ethyldecahydroquinoline]
46.8
CCN(CCSc1ccc(OC)c(OC)c1)C1CCCCC1 [Compound [6]]
86.6
CCN(CCSc1cccc(C(F)F)c1)C1CCCCC1 [Compound [5]]
92.8
CCN(CCSc1ccc(F)cc1)C1CCCCC1 [Compound [7]]
44.5

Turning to the following molecule.
Reported inhibition at 0.001 µM for CCN(CCSc1cccc(C(F)(F)F)c1)C1CCCCC1 [Compound [4]] was 95.2

----------
- System Tested: sigma receptor (Cavia porcellus, UniProt Q60492)
- Construct: A membrane preparation as a sigma receptor obtained from the whole brain of guinea pigs; from tissue; host or cells: guinea pig whole brain membrane preparation
- Assay Info: Evaluation of affinity to sigma receptors ([3H](+)-pentazocine receptor binding, whole-brain membrane preparation)
- Parameters: species or system guinea pig
- Applied Conditions: compound concentration 1 × 10^−7 mol/L; [3H](+)-pentazocine; 25° C., 60 minutes; read-out: Inhibition rate (%)
Observable: inhibition at 0.1 µM (%)
Please respond with the number in % and leave the unit unwritten.

Field: example entries. Status: answers known.
CCN(CCSc1ccc(F)cc1)C1CCCCC1 [Compound [7]]
96.3
CCN(CCSc1cccc(C(F)(F)F)c1)C1CCCCC1 [Compound [4]]
100
CCN(CCSc1cccc(C(F)F)c1)C1CCCCC1 [Compound [5]]
99.2

Reported inhibition at 0.1 µM for CCN(CCSc1ccc(OC)c(OC)c1)C1CCCCC1 [Compound [6]] was 99.1

Reported inhibition at 0.1 µM for c1ccc(SCCN2CCCC3CCCCC32)cc1 (centres unmarked) [Compound [3], N-(2-phenylthio)ethyldecahydroquinoline] was 100

----------
Catalogue of inhibition at 0.01 µM values
- System Tested: sigma receptor (Cavia porcellus, UniProt Q60492)
- Construct: A membrane preparation as a sigma receptor obtained from the whole brain of guinea pigs; from tissue; host or cells: guinea pig whole brain membrane preparation
- Assay Info: Evaluation of affinity to sigma receptors ([3H](+)-pentazocine receptor binding, whole-brain membrane preparation)
- Parameters: species or system guinea pig
- Applied Conditions: compound concentration 1 × 10^−8 mol/L; [3H](+)-pentazocine; 25° C., 60 minutes; read-out: Inhibition rate (%)
- Procedure: The following measurement of radioactivity was performed according to a usual method after the binding reaction had been carried out at 25° C. for 60 minutes. The inhibition rate was determined by the equation of “100−binding rate”. The binding rate is represented by the following equation: The IC50 of the test substance was calculated from a regression equation to the dose-response curve. […]
Please respond with the number in % and leave the unit unwritten.

Field: example entries. Status: answers known.
CCN(CCSc1ccc(OC)c(OC)c1)C1CCCCC1 [Compound [6]]
98.1
CCN(CCSc1cccc(C(F)(F)F)c1)C1CCCCC1 [Compound [4]]
99.7
CCN(CCSc1cccc(C(F)F)c1)C1CCCCC1 [Compound [5]]
98.6
c1ccc(SCCN2CCCC3CCCCC32)cc1 (centres unmarked) [Compound [3], N-(2-phenylthio)ethyldecahydroquinoline]
90.4

Turning to the following molecule.
Reported inhibition at 0.01 µM for CCN(CCSc1ccc(F)cc1)C1CCCCC1 [Compound [7]] was 90
